The measurements presented in this section are drawn from patent US20260098102A1.

Target: T1, human SIRPA_V1 protein (human, UniProt P78324 31-504)
T1 construct: Expressed on 293α cells from pcDNA3.2 V5-DEST or pFLAG V5-DEST (FLAG-tagged) vectors; also called human SIRPA Variant 1; hSIRPA V1
T1 sequence (P78324 31-504 limits assumed): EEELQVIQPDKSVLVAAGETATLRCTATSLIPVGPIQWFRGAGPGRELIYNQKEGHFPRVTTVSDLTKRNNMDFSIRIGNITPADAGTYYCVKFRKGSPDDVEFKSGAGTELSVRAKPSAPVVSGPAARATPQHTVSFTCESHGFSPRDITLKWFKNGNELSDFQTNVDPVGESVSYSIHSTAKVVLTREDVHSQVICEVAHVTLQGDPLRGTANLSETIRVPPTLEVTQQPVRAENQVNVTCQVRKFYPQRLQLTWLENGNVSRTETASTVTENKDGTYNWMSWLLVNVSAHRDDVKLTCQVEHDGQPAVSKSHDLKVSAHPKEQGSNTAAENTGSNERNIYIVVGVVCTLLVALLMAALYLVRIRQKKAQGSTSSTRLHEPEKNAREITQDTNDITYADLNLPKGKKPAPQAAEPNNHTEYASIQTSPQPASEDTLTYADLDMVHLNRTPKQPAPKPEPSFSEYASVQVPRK
Test: cell-based ELISA on 293α cells expressing FLAG-tagged SIRPA_V1; Abs 490 normalized to FLAG tag [i]
Method: The 293a cells, described in Example 1)-6, were prepared at 5× 10⁵ cells/mL in a 10% FBS-containing DMEM medium. pFLAG V5-DEST-SIRPA_V1-V10, pFLAG V5-DEST-monkey SIRPA, pFLAG V5-DEST-mouse SIRPA, or pFLAG V5-DEST was introduced into the cells using Lipofectamine LTX (Invitrogen), and 100 μL each was aliquoted to a 96-well plate (Corning Incorporated) and cultured overnight in a 10% FBS-containing DMEM medium at 37° C. under a 5% CO₂ condition. […]
Exercise: for every item that follows, state its recorded EC50 (read off the curve).

Entry humanized anti-SIRPA antibody hD13_H1L4 (antibody, human IgG4 S228P, kappa, F234A L235A, V domains shown, hH1 heavy chain (IgG4proFALA) and hL4 kappa light chain; also called hD13_HIL4; hD13_HIL4h) VH: QVQLVESGGGVVQPGRSLRLSCAASGFTFSDYGMIWVRQAPGKGLEWVASISSSSSYIYYADSVKGRFTISRDNSKNRLYLQMNSLRAEDTAVYYCARRYYGFNYPFDYWGQGTMVTVSS VL: DTVLTQSPDSLAVSLGQRATINCGASKSVRTYMHWYQQKPGQQPKLLIYSASNLEAGVPSRFSGSGSGTDFTLTISSLQAEDVAVYYCQQSNEPPYTFGQGTKVEIKR has what EC50 (read off the curve)? ~0.04 µg/mL

Need EC50 (read off the curve) of humanized anti-SIRPA antibody hD13_H2L3 (antibody, human IgG4 S228P, kappa, F234A L235A, V domains shown, hH2 heavy chain (IgG4proFALA) and hL3 kappa light chain; also called H2L3 antibody) VH: EVQLVESGGGVVQPGRSLRLSCAASGFTFSDYGMIWVRQAPGKGLEWVASISSSSSYIYYADSVKGRFTISRDNSKNTLYLQMNSLRAEDTAVYYCARRYYGFNYPFDYWGQGTMVTVSS VL: DTQLTQSPSSLSASVGQRVTITCGASKSVRTYMHWYQQKPGKQPKLLIYSASNLEAGVPSRFSGSGSGTDFTLTISSLQPEDFATYYCQQSNEPPYTFGQGTKLEIKR , thanks. ~0.05 µg/mL

Reported EC50 (read off the curve) for humanized anti-SIRPA antibody hD13_H2L2 (antibody, human IgG4 S228P, kappa, F234A L235A, V domains shown, hH2 heavy chain (IgG4proFALA) and hL2 kappa light chain; also called H2L2 antibody) VH: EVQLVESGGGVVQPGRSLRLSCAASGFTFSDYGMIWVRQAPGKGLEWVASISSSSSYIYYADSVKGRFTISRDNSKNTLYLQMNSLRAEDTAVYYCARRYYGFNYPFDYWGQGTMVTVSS VL: AIQLTQSPSSLSASVGQRVTITCGASKSVRTYMHWYQQKPGKAPKLLIYSASNLEAGVPSRFSGSGSGTDFTLTISSLQPEDFATYYCQQSNEPPYTFGQGTKLEIKR : what is it? ~0.04 µg/mL

Given the entry human chimeric anti-SIRPA antibody cD13 (antibody, human IgG4 S228P, kappa, F234A L235A, V domains shown, Human IgG4proFALA heavy chain, human kappa light chain; also called cD13 (IgG4pf); human chimeric antibody D13) VH: EVQLVESGGGLVQPGRSLKLSCLASGFTFSDYGMIWVRQAPGKGLEWVASISSSSSYIYYADTVKGRFTISRENAKNTLFLHMTSLRSEDTALYYCARRYYGFNYPFDYWGQGVMVTVSS VL: DTVLTQSPALAVSLGQRVTISCGASKSVRTYMHWYQQKSGQQPKLLIYSASNLEAGVPSRFSGSGSGTDFTLTIDPVEADDIANYYCQQSNEPPYTFGAGTKLELKR , report its measured EC50 (read off the curve). ~0.05 µg/mL
